- System: HCT-116 colon
- Protocol description: NCI tumour cell line growth inhibition, 48 h
Measurement name: GI50

Fill in: GI50 of "Clc1ccc(CNc2ccc3nc(CCC4CCCCC4)[nH]c3c2)cc1" is ___ 1930 nM

Follow-up item: O=C1C=CC=C[C@@H]2C(C3OCCO3)CC[C@H]12.[C-]#[O+].[C-]#[O+].[C-]#[O+].[Fe] (some centres not stated) 18900 nM

Follow-up item: "Cc1ncc(C(=O)Nc2ccc(CN3CCN(C)CC3)c(C(F)(F)F)c2)cc1C#Cc1c(N)ncc2ccc(F)cc12" 176 nM

Follow-up item: "O=c1oc2ccc(Br)cc2c(=O)n1-c1ccc(Br)cc1F" 555 nM

Follow-up item: "O=C1Nc2ccccc2/C1=C\c1c[nH]c2ccc(Br)cc12" 1610 nM

Follow-up item: "COc1cc2c(/C=C3\C(=O)N(C)c4ccc(O)cc43)c[nH]c2cc1C" 3160 nM

Follow-up item: C[C@H]1CCC/C=C/[C@@H]2C[C@H](O)C[C@H]2[C@H](O)[C@@H](S(=O)C[C@@H](N)C(=O)O)CC(=O)O1 (some centres not stated) 32.5 nM

###

- Test system: MDA-MB-435
- Protocol description: NCI tumour cell line growth inhibition, 48 h
Measurement name: TGI

Fill in: TGI of CN(C(=O)Nc1ccc(Cl)c(Cl)c1)C1CCCC[C@@H]1N1CCCC1 (stereo partly specified) is ___ > 100 µM

Follow-up item: "COC(=O)c1cc(C)n(CN(Cn2nc(C(=O)OC)cc2C)c2ccccc2)n1" > 100 µM

Follow-up item: CC(OC(C)(C)C)[C@H](NC(=O)OCc1ccccc1)C(=O)NC(OCc1ccccc1)[C@H]1COC(C)(C)O1 (stereo partly specified) > 10 µM

Follow-up item: "N[C@H]1C[C@@H]1c1ccc(-c2cccc(O)c2)cc1" 61.6 µM

Follow-up item: O=c1[nH]cnc2c1ccn2C1OC(CO)C(O)C1O (stereo unspecified) > 100 µM

Follow-up item: O=C1C(Br)=CC2C1C1C3CCC3C2(Br)C12OCCO2 (stereo unspecified) 13.4 µM

###

- Test system: SR leukemia
- Protocol description: NCI tumour cell line growth inhibition, 48 h
Give measured log10(TGI) for each item. Keep answers brief.
Base-10 log of TGI, unit µM.

Form field - read-out: log10(TGI); system: SR leukemia; submitted item: "CC(C)c1cc2c(c(O)c1O)[C@@]1(C)CCCC(C)(C)C1=C(O)C2" 0.51

Follow-up item: "CCN1C(C)(C)CC(Oc2ccc(C(=O)Nc3ccc(NC(=O)Nc4cc(C(C)(C)C)on4)cc3)nc2)CC1(C)C" 0.69

Follow-up item: "Brc1ccc(-c2[nH]c3ccccc3c2N=Nc2ccccc2)cc1" 1.71

Follow-up item: "Nc1cccc(CCN2CCN(CCCc3ccccc3)CC2)c1" 1.82

Follow-up item: "CCCCCCN1C(=O)CC(=O)N(CCCCCC)S1(=O)=O" 1.79

###

Give measured TGI for each item. Keep answers brief.
- Test system: DU-145 prostate
- Protocol description: NCI tumour cell line growth inhibition, 48 h

Fill in: TGI of O=C1C=CC=C[C@@H]2C(C3OCCO3)CC[C@H]12.[C-]#[O+].[C-]#[O+].[C-]#[O+].[Fe] (stereo not given in full) is ___ > 100 µM

Follow-up item: "O=C1NC(=NCc2ccccc2Br)S/C1=C\c1ccc2ncccc2c1" > 25 µM

Follow-up item: "CS(=O)(=O)CCN(CC#N)Cc1ccc(-c2ccc3ncnc(Nc4ccc(OCc5cccc(F)c5)c(Cl)c4)c3c2)o1" > 25 µM

Follow-up item: "O=C(NC/C(Cl)=C/Cl)Nc1c2ccccc2nc2ccccc12" > 100 µM

Follow-up item: "N#C/C(=C/NC(=S)NCc1ccccc1)C(N)=O" > 100 µM

Follow-up item: "CC(C)(O)/C=C/C(=O)[C@](C)(O)[C@H]1[C@H](O)C[C@@]2(C)[C@@H]3CC=C4[C@@H](C=C(O)C(=O)C4(C)C)[C@]3(C)C(=O)C[C@]12C" 1.9 µM

Follow-up item: "O=C1Nc2ccccc2/C1=C\c1c[nH]c2ccc(Br)cc12" 11 µM

Follow-up item: "S=c1nc2sc3c(c2c(Nc2ccccc2)[nH]1)CCCC3" > 100 µM

Follow-up item: "CCSc1cc(C(=O)OC)c2n(c1=O)CCCC2" > 100 µM

Follow-up item: "CNC(=O)Oc1ccc(C(=S)Nc2ccc(Br)cc2)cc1" 81 µM

###

Give measured TGI for each item. Keep answers brief.
- Test system: CAKI-1 renal
- Protocol description: NCI tumour cell line growth inhibition, 48 h
Your answer should be a plain number; it is taken to be in µM.

Fill in: TGI of "COc1ccc(C2=C(Cl)C(=O)N(c3ccc(OC)cc3OC)C(=O)C2(Cl)Cl)cc1" is ___ 25.2

Follow-up item: "O=C(/C=C/c1cccs1)c1ccc(Cl)cc1Cl" 43.1

Follow-up item: "Brc1ccc(-c2[nH]c3ccccc3c2N=Nc2ccccc2)cc1" 27.8

Follow-up item: "COc1cccc2c1C(=O)c1c(O)c3c(c(O)c1C2=O)C[C@@](O)(C(C)=O)C[C@@H]3O[C@H]1C[C@H](N)[C@H](O)[C@H](C)O1" 1.53

###

- System: MCF7 breast
- Protocol description: NCI tumour cell line growth inhibition, 48 h
Give measured GI50 for each item. Keep answers brief.

Fill in: GI50 of "Clc1ccc(Nc2nnc(CNc3ccccc3)c3ccccc23)cc1" is ___ 2.68 µM

Follow-up item: "CS(=O)(=O)CCN(CC#N)Cc1ccc(-c2ccc3ncnc(Nc4ccc(OCc5cccc(F)c5)c(Cl)c4)c3c2)o1" 8.66 µM

Follow-up item: "O=C1Nc2ccccc2/C1=C\c1c[nH]c2ccc(Br)cc12" 2.43 µM

Follow-up item: "COc1cc2c(/C=C3\C(=O)N(C)c4ccc(O)cc43)c[nH]c2cc1C" 2.28 µM

Follow-up item: "C/C(=C1\SC(=NCc2cccs2)NC1=O)c1ccc2ncccc2c1" 11.7 µM

###

- Test system: SK-MEL-28 melanoma
- Protocol description: NCI tumour cell line growth inhibition, 48 h
Give measured TGI for each item. Keep answers brief.

Fill in: TGI of C[C@]12CCC3c4ccc(O)cc4CC[C@H]3C1CC(=O)NC2=O (stereo not given in full) is ___ > 10 µM

Follow-up item: "CC(C)NC(=O)OCc1c(COC(=O)NC(C)C)c(-c2ccc[n+](COC(=O)C(C)C)c2)n2c1CCC2" > 100 µM

Follow-up item: "O=C1NC(=NCc2ccccc2Br)S/C1=C\c1ccc2ncccc2c1" > 25 µM

Follow-up item: "O=C1/C(=C\c2ccc(Cl)cc2)CCOc2c1ccc1ccccc21" 38.2 µM

Follow-up item: "CCN(CC)CCCNc1[nH]ncc2cc3c(nc4ccc(OC)cc43)c(C)c12" 30.8 µM

###

- System: NCI-H460 lung
- Protocol description: NCI tumour cell line growth inhibition, 48 h
Measurement name: TGI

Fill in: TGI of COc1ccc(C2(O)C(S(=O)(=O)c3ccc(C)cc3)=Cc3ccc(OC)cc32)cc1 (stereo not given) is ___ > 100 µM

Follow-up item: COc1cc(C2S/C(=C/c3ccccc3)C(=O)N2c2cccc(Cl)c2)cc(OC)c1OC (stereo not given) > 100 µM

Follow-up item: COc1cccc(CC2C(=O)N=C(NC(C)=O)N2C)c1OC(C)=O (stereo not given) > 100 µM

Follow-up item: "Brc1ccc(-c2[nH]c3ccccc3c2N=Nc2ccccc2)cc1" 31.8 µM

Follow-up item: CCCCCCCCCC(CCCC(O)CC(=O)O)OC1OC(COC2OC(C)C(O)C(O)C2O)C(O)C(O)C1OC1OC(CO)C(O)C(O)C1OC1OC(C)C(OC(=O)CC(C)C)C(O)C1O (stereo not given) > 60 µM

###

- Test system: MALME-3M melanoma
- Protocol description: NCI tumour cell line growth inhibition, 48 h
Measurement name: GI50

Fill in: GI50 of "Cc1cc(Nc2nc(-c3ccc(F)cc3)nc3ccccc23)n[nH]1" is ___ 16.4 µM

Follow-up item: "CS(=O)(=O)CCN(CC#N)Cc1ccc(-c2ccc3ncnc(Nc4ccc(OCc5cccc(F)c5)c(Cl)c4)c3c2)o1" 14.9 µM

Follow-up item: "N[C@H]1C[C@@H]1c1ccc(-c2cccc(O)c2)cc1" 14.2 µM

Follow-up item: "O=C1/C(=C\c2ccc(Cl)cc2)CCOc2c1ccc1ccccc21" 25.9 µM

Follow-up item: "COc1cc2c(/C=C3\C(=O)N(C)c4ccc(O)cc43)c[nH]c2cc1C" 2.44 µM

Follow-up item: "Cc1c2c(nn1-c1ccc(S/N=C3\SCC(=O)CN3Cc3ccccc3)cc1)-c1ccccc1CC2" 41.4 µM
